Recorded values, source the NIST ThermoML archive (doi:10.1021/je700670k).

Conditions: 393.15 K; 25000 kPa; Liquid; Vibrating tube method
Could you please report measured mass density for the items listed next?
Respond with the bare value in kg/m3.

// query Please report the recorded mass density for CCn1cc[n+](C)c1.O=S(=O)([O-])C(F)(F)F [1-ethyl-3-methylimidazolium trifluoromethanesulfonate] .
// result 1308.7

// query Please report the recorded mass density for `CCC[N+]1(C)CCCC1.O=S(=O)([N-]S(=O)(=O)C(F)(F)F)C(F)(F)F` .
// result 1365.8

// query Please report the recorded mass density for `CCCC[N+]1(C)CCCC1.O=S(=O)([N-]S(=O)(=O)C(F)(F)F)C(F)(F)F` .
// result 1338

// query Please report the recorded mass density for `CCC[n+]1cccc(C)c1.O=S(=O)([N-]S(=O)(=O)C(F)(F)F)C(F)(F)F` .
// result 1378.8

// query Please report the recorded mass density for `CCC[N+]1(C)CCCCC1.O=S(=O)([N-]S(=O)(=O)C(F)(F)F)C(F)(F)F` .
// result 1344.8

###

Could you please report measured mass density for the items listed next?
Settings: 333.15 K; 7500 kPa; Liquid; Vibrating tube method
Numbers after ± are expanded uncertainties.
Please don't drop the unit; write it after the number.

// query Please report the recorded mass density for `CCC[N+]1(C)CCCC1.O=S(=O)([N-]S(=O)(=O)C(F)(F)F)C(F)(F)F` .
// result 1405 ± 12 kg/m3

// query Please report the recorded mass density for `CCC[N+]1(C)CCCCC1.O=S(=O)([N-]S(=O)(=O)C(F)(F)F)C(F)(F)F` .
// result 1382.8 ± 12 kg/m3

// query Please report the recorded mass density for `CCC[n+]1cccc(C)c1.O=S(=O)([N-]S(=O)(=O)C(F)(F)F)C(F)(F)F` .
// result 1419.8 ± 12 kg/m3

// query Please report the recorded mass density for CCn1cc[n+](C)c1.O=S(=O)([O-])C(F)(F)F [1-ethyl-3-methylimidazolium trifluoromethanesulfonate] .
// result 1347.6 ± 12 kg/m3

// query Please report the recorded mass density for `CCCC[N+]1(C)CCCC1.O=S(=O)([N-]S(=O)(=O)C(F)(F)F)C(F)(F)F` .
// result 1376.1 ± 12 kg/m3

###

Could you please report measured mass density for the items listed next?
Conditions: 303.15 K; 1000 kPa; Liquid; Vibrating tube method
Respond with the bare value in kg/m3.

// query Please report the recorded mass density for CCn1cc[n+](C)c1.O=S(=O)([O-])C(F)(F)F [1-ethyl-3-methylimidazolium trifluoromethanesulfonate] .
// result 1370.7

// query Please report the recorded mass density for `CCCC[N+]1(C)CCCC1.O=S(=O)([N-]S(=O)(=O)C(F)(F)F)C(F)(F)F` .
// result 1399.9

// query Please report the recorded mass density for `CCC[N+]1(C)CCCC1.O=S(=O)([N-]S(=O)(=O)C(F)(F)F)C(F)(F)F` .
// result 1429.3

// query Please report the recorded mass density for `CCC[n+]1cccc(C)c1.O=S(=O)([N-]S(=O)(=O)C(F)(F)F)C(F)(F)F` .
// result 1445.3

// query Please report the recorded mass density for `CCC[N+]1(C)CCCCC1.O=S(=O)([N-]S(=O)(=O)C(F)(F)F)C(F)(F)F` .
// result 1407.8

###

Conditions: 293.15 K; 4000 kPa; Liquid; Vibrating tube method
measured-quantity: mass density (kg/m3)
Respond with the bare value in kg/m3.

// query Please report the recorded mass density for `CCC[N+]1(C)CCCC1.O=S(=O)([N-]S(=O)(=O)C(F)(F)F)C(F)(F)F` .
// result 1441.4

// query Please report the recorded mass density for `CCC[n+]1cccc(C)c1.O=S(=O)([N-]S(=O)(=O)C(F)(F)F)C(F)(F)F` .
// result 1457.9

// query Please report the recorded mass density for `CCC[N+]1(C)CCCCC1.O=S(=O)([N-]S(=O)(=O)C(F)(F)F)C(F)(F)F` .
// result 1419.6

// query Please report the recorded mass density for CCn1cc[n+](C)c1.O=S(=O)([O-])C(F)(F)F [1-ethyl-3-methylimidazolium trifluoromethanesulfonate] .
// result 1381.8

// query Please report the recorded mass density for `CCCC[N+]1(C)CCCC1.O=S(=O)([N-]S(=O)(=O)C(F)(F)F)C(F)(F)F` .
// result 1411.9

###

Details: 313.15 K; 100 kPa; Liquid; Vibrating tube method
measured-quantity: mass density (kg/m3)
Respond with the bare value in kg/m3.

// query Please report the recorded mass density for `CCC[n+]1cccc(C)c1.O=S(=O)([N-]S(=O)(=O)C(F)(F)F)C(F)(F)F` .
// result 1433.9

// query Please report the recorded mass density for `CCC[N+]1(C)CCCCC1.O=S(=O)([N-]S(=O)(=O)C(F)(F)F)C(F)(F)F` .
// result 1397.4

// query Please report the recorded mass density for `CCC[N+]1(C)CCCC1.O=S(=O)([N-]S(=O)(=O)C(F)(F)F)C(F)(F)F` .
// result 1418.6

// query Please report the recorded mass density for `CCCC[N+]1(C)CCCC1.O=S(=O)([N-]S(=O)(=O)C(F)(F)F)C(F)(F)F` .
// result 1389.5

// query Please report the recorded mass density for CCn1cc[n+](C)c1.O=S(=O)([O-])C(F)(F)F [1-ethyl-3-methylimidazolium trifluoromethanesulfonate] .
// result 1361.1

###

Could you please report measured mass density for the items listed next?
Settings: 333.15 K; 4000 kPa; Liquid; Vibrating tube method
Respond with the bare value in kg/m3.

// query Please report the recorded mass density for `CCCC[N+]1(C)CCCC1.O=S(=O)([N-]S(=O)(=O)C(F)(F)F)C(F)(F)F` .
// result 1373.4

// query Please report the recorded mass density for CCn1cc[n+](C)c1.O=S(=O)([O-])C(F)(F)F [1-ethyl-3-methylimidazolium trifluoromethanesulfonate] .
// result 1345.3

// query Please report the recorded mass density for `CCC[n+]1cccc(C)c1.O=S(=O)([N-]S(=O)(=O)C(F)(F)F)C(F)(F)F` .
// result 1417

// query Please report the recorded mass density for `CCC[N+]1(C)CCCC1.O=S(=O)([N-]S(=O)(=O)C(F)(F)F)C(F)(F)F` .
// result 1402.2

// query Please report the recorded mass density for `CCC[N+]1(C)CCCCC1.O=S(=O)([N-]S(=O)(=O)C(F)(F)F)C(F)(F)F` .
// result 1380.1

###

Conditions: 333.15 K; 35000 kPa; Liquid; Vibrating tube method
measured-quantity: mass density (kg/m3)
Respond with the bare value in kg/m3.

// query Please report the recorded mass density for CCn1cc[n+](C)c1.O=S(=O)([O-])C(F)(F)F [1-ethyl-3-methylimidazolium trifluoromethanesulfonate] .
// result 1364.3

// query Please report the recorded mass density for `CCC[n+]1cccc(C)c1.O=S(=O)([N-]S(=O)(=O)C(F)(F)F)C(F)(F)F` .
// result 1441.1

// query Please report the recorded mass density for `CCC[N+]1(C)CCCC1.O=S(=O)([N-]S(=O)(=O)C(F)(F)F)C(F)(F)F` .
// result 1425.4

// query Please report the recorded mass density for `CCC[N+]1(C)CCCCC1.O=S(=O)([N-]S(=O)(=O)C(F)(F)F)C(F)(F)F` .
// result 1403

// query Please report the recorded mass density for `CCCC[N+]1(C)CCCC1.O=S(=O)([N-]S(=O)(=O)C(F)(F)F)C(F)(F)F` .
// result 1396.6

###

Conditions: 323.15 K; 3000 kPa; Liquid; Vibrating tube method
± gives the expanded uncertainty stated by the source.
measured-quantity: mass density
Please don't drop the unit; write it after the number.

// query Please report the recorded mass density for `CCC[N+]1(C)CCCC1.O=S(=O)([N-]S(=O)(=O)C(F)(F)F)C(F)(F)F` .
// result 1411 ± 12 kg/m3

// query Please report the recorded mass density for `CCCC[N+]1(C)CCCC1.O=S(=O)([N-]S(=O)(=O)C(F)(F)F)C(F)(F)F` .
// result 1382 ± 12 kg/m3

// query Please report the recorded mass density for `CCC[N+]1(C)CCCCC1.O=S(=O)([N-]S(=O)(=O)C(F)(F)F)C(F)(F)F` .
// result 1389.9 ± 12 kg/m3

// query Please report the recorded mass density for CCn1cc[n+](C)c1.O=S(=O)([O-])C(F)(F)F [1-ethyl-3-methylimidazolium trifluoromethanesulfonate] .
// result 1353.8 ± 12 kg/m3

// query Please report the recorded mass density for `CCC[n+]1cccc(C)c1.O=S(=O)([N-]S(=O)(=O)C(F)(F)F)C(F)(F)F` .
// result 1426.1 ± 12 kg/m3

###

Conditions: 393.15 K; 5000 kPa; Liquid; Vibrating tube method
Numbers after ± are expanded uncertainties.
Could you please report measured mass density for the items listed next?

// query Please report the recorded mass density for `CCC[N+]1(C)CCCC1.O=S(=O)([N-]S(=O)(=O)C(F)(F)F)C(F)(F)F` .
// result 1347.8 ± 12 kg/m3

// query Please report the recorded mass density for `CCC[N+]1(C)CCCCC1.O=S(=O)([N-]S(=O)(=O)C(F)(F)F)C(F)(F)F` .
// result 1327.3 ± 12 kg/m3

// query Please report the recorded mass density for `CCCC[N+]1(C)CCCC1.O=S(=O)([N-]S(=O)(=O)C(F)(F)F)C(F)(F)F` .
// result 1320 ± 12 kg/m3

// query Please report the recorded mass density for `CCC[n+]1cccc(C)c1.O=S(=O)([N-]S(=O)(=O)C(F)(F)F)C(F)(F)F` .
// result 1360 ± 12 kg/m3

// query Please report the recorded mass density for CCn1cc[n+](C)c1.O=S(=O)([O-])C(F)(F)F [1-ethyl-3-methylimidazolium trifluoromethanesulfonate] .
// result 1294.5 ± 12 kg/m3
